# Papp at 7 h per record follows
assay info: Permeability of compound measured after 7 hrs by PAMPA
Type: ADME
experimental setup: read-out: permeability
Starred links: 1 amine or outer side, 2 acyl side, 3 side chain; linkers in the order of their positions; H or OH if unused. Non-standard residues stand in square brackets, D forms with d. Residues, ends and D or L forms follow the SMILES beside them. *: point of attachment. Cha = N[C@@H](CC1CCCCC1)C(=O)O; Morpholide = C1CN(*)CCO1; CO = O=C([*:1])[*:2]; Bn = c1ccc(C*)cc1

{"compound": "O=C[C@H](COCc1ccccc1)NC(=O)[C@H](CC1CCCCC1)NC(=O)N1CCOCC1 ({Morpholide-CO}-[Cha]-Ser(Bn)-aldehyde)", "Papp at 7 h [×10⁻⁶ cm/s]": 4.5}
{"compound": "CS(=O)(=O)C[C@H](N[C@@H](c1ccc([N+](=O)[O-])cc1)C(F)(F)F)C(=O)N[C@H](C#N)COCc1ccccc1", "Papp at 7 h [×10⁻⁶ cm/s]": 0.7}
{"compound": "N#C[C@H](COCc1ccccc1)NC(=O)[C@H](CC1CCCCC1)NC(=O)C1CCOCC1", "Papp at 7 h [×10⁻⁶ cm/s]": 4.1}
{"compound": "N#C[C@H](COCc1ccccc1)NC(=O)[C@H](CC1CCCCC1)NC(=O)N1CCOCC1", "Papp at 7 h [×10⁻⁶ cm/s]": 4.7}

---

test system: Procathepsin L (Homo sapiens)
Sequence (P07711 whole entry): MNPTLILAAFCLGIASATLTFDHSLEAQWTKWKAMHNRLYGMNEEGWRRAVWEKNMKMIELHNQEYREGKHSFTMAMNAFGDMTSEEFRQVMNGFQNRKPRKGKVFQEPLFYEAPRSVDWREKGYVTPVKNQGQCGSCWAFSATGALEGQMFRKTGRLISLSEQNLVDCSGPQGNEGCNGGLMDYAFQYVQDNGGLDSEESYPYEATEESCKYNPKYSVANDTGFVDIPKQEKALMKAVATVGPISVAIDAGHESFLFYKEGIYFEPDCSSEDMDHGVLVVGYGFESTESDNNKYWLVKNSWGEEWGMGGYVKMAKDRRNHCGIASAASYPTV

{"smiles text": "O=C(CO)[C@H](COCc1ccccc1)NC(=O)[C@H](CC1CCCCC1)NC(=O)N1CCOCC1", "unit name": "nM", "limit sign": ">", "Ki": 600}
{"smiles text": "CS(=O)(=O)C[C@H](N[C@@H](c1ccc([N+](=O)[O-])cc1)C(F)(F)F)C(=O)N[C@H](C#N)COCc1ccccc1", "unit name": "nM", "limit sign": ">", "Ki": 10000}
{"smiles text": "CS(=O)(=O)C[C@H](N[C@@H](c1ccc([N+](=O)[O-])cc1)C(F)(F)F)C(=O)NC1(C#N)CC1", "unit name": "nM", "limit sign": ">", "Ki": 10000}
{"smiles text": "N#CC1(NC(=O)[C@H](CC2CCCCC2)NC(=O)N2CCOCC2)CC1", "unit name": "nM", "limit sign": "=", "Ki": 385}
{"smiles text": "CS(=O)(=O)C[C@H](N[C@@H](c1ccc(F)cc1)C(F)(F)F)C(=O)N[C@H](C#N)COCc1ccccc1", "unit name": "nM", "limit sign": "=", "Ki": 1950}
{"smiles text": "N#C[C@H](CCc1ccccc1)NC(=O)[C@H](CC1CCCCC1)NC(=O)N1CCOCC1", "unit name": "nM", "limit sign": "=", "Ki": 2540}
{"smiles text": "N#C[C@H](COCc1ccccc1)NC(=O)[C@H](CC1CCCCC1)NC(=O)N1CCOCC1", "unit name": "nM", "limit sign": "=", "Ki": 543}
{"smiles text": "N#C[C@H](COCc1ccccc1)NC(=O)[C@H](CC1CCCCC1)NC(=O)c1ccncc1", "unit name": "nM", "limit sign": "=", "Ki": 1020}

---

assay info: Stability of compound at pH 7.4 assessed as compound remaining measured after 24 hrs
Assay type: physicochemical
experimental setup: buffer, read-out: Stability

{"smiles text": "O=C(N/N=C/[C@H](COCc1ccccc1)NC(=O)[C@H](CC1CCCCC1)NC(=O)N1CCOCC1)c1ccccc1", "unit name": "%", "remaining at 24 h": 50}

---

pKi reference
test system: Procathepsin L (Homo sapiens)
pKi: −log10 of the molar value. Starred links: 1 amine or outer side, 2 acyl side, 3 side chain; linkers in the order of their positions; H or OH if unused. Non-standard residues stand in square brackets, D forms with d. Residues, ends and D or L forms follow the SMILES beside them. *: point of attachment. Cha = N[C@@H](CC1CCCCC1)C(=O)O; Morpholide = C1CN(*)CCO1; CO = O=C([*:1])[*:2]; Bn = c1ccc(C*)cc1
observed property: pKi

{"compound": "CS(=O)(=O)C[C@H](N[C@@H](c1ccc([N+](=O)[O-])cc1)C(F)(F)F)C(=O)N[C@H](C#N)CCc1ccccc1", "test system": "Procathepsin L (Homo sapiens)", "observed property": "pKi", "limit sign": "<", "reported": 5.00}
{"compound": "O=C(OCC(=O)[C@H](COCc1ccccc1)NC(=O)[C@H](CC1CCCCC1)NC(=O)N1CCOCC1)c1ccccc1", "test system": "Procathepsin L (Homo sapiens)", "observed property": "pKi", "limit sign": "<", "reported": 6.22}
{"compound": "O=C[C@H](COCc1ccccc1)NC(=O)[C@H](CC1CCCCC1)NC(=O)N1CCOCC1 ({Morpholide-CO}-[Cha]-Ser(Bn)-aldehyde)", "test system": "Procathepsin L (Homo sapiens)", "observed property": "pKi", "limit sign": "=", "reported": 7.77}
{"compound": "N#CC1(NC(=O)[C@H](CC2CCCCC2)NC(=O)C2CCOCC2)CC1", "test system": "Procathepsin L (Homo sapiens)", "observed property": "pKi", "limit sign": "=", "reported": 5.78}
{"compound": "O=C(N/N=C/[C@H](COCc1ccccc1)NC(=O)[C@H](CC1CCCCC1)NC(=O)N1CCOCC1)c1ccccc1", "test system": "Procathepsin L (Homo sapiens)", "observed property": "pKi", "limit sign": "=", "reported": 7.68}
{"compound": "N#C[C@H](CCc1ccccc1)NC(=O)[C@H](CC1CCCCC1)NC(=O)c1ccncc1", "test system": "Procathepsin L (Homo sapiens)", "observed property": "pKi", "limit sign": "=", "reported": 5.83}
{"compound": "O=C(N/N=C(\\CS(=O)(=O)c1ccccc1)[C@H](COCc1ccccc1)NC(=O)[C@H](CC1CCCCC1)NC(=O)N1CCOCC1)c1ccccc1", "test system": "Procathepsin L (Homo sapiens)", "observed property": "pKi", "limit sign": "<", "reported": 5.60}
{"compound": "CS(=O)(=O)C[C@H](N[C@@H](c1ccc(F)cc1)C(F)(F)F)C(=O)NC1(C#N)CC1", "test system": "Procathepsin L (Homo sapiens)", "observed property": "pKi", "limit sign": "=", "reported": 5.15}

---

pKi: −log10 of the molar value.
Procathepsin L (Homo sapiens): reported pKi for various compounds.

{"smiles text": "N#C[C@H](COCc1ccccc1)NC(=O)[C@H](CC1CCCCC1)N[C@@H](c1ccc(F)cc1)C(F)(F)F", "limit sign": "<", "pKi": 5.00}
{"smiles text": "N#C[C@H](CCc1ccccc1)NC(=O)[C@H](CC1CCCCC1)N[C@@H](c1ccc(F)cc1)C(F)(F)F", "limit sign": "<", "pKi": 5.00}
{"smiles text": "N#CC1(NC(=O)[C@H](CC2CCCCC2)NC(=O)c2ccncc2)CC1", "limit sign": "=", "pKi": 6.15}
{"smiles text": "O=C(SCC(=O)[C@H](COCc1ccccc1)NC(=O)[C@H](CC1CCCCC1)NC(=O)N1CCOCC1)c1ccccc1", "limit sign": "<", "pKi": 5.52}
{"smiles text": "O=C(CS(=O)(=O)c1ccccc1)[C@H](COCc1ccccc1)NC(=O)[C@H](CC1CCCCC1)NC(=O)N1CCOCC1", "limit sign": "<", "pKi": 6.22}
{"smiles text": "N#C[C@H](COCc1ccccc1)NC(=O)[C@H](CC1CCCCC1)NC(=O)C1CCOCC1", "limit sign": "=", "pKi": 5.30}
{"smiles text": "N#C[C@H](CCc1ccccc1)NC(=O)[C@H](CC1CCCCC1)NC(=O)C1CCOCC1", "limit sign": "=", "pKi": 5.20}
{"smiles text": "N#CC1(NC(=O)[C@H](CC2CCCCC2)N[C@@H](c2ccc(F)cc2)C(F)(F)F)CC1", "limit sign": "=", "pKi": 5.82}

---

test system: Cathepsin B (Homo sapiens)
assay info: Inhibition of human Cathepsin B using Z-Phe-Arg-AMC as substrate by fluorescence based assay
Starred links: 1 amine or outer side, 2 acyl side, 3 side chain; linkers in the order of their positions; H or OH if unused. Non-standard residues stand in square brackets, D forms with d. Residues, ends and D or L forms follow the SMILES beside them. *: point of attachment. Cha = N[C@@H](CC1CCCCC1)C(=O)O; Morpholide = C1CN(*)CCO1; CO = O=C([*:1])[*:2]; Bn = c1ccc(C*)cc1

{"compound": "O=C[C@H](COCc1ccccc1)NC(=O)[C@H](CC1CCCCC1)NC(=O)N1CCOCC1 ({Morpholide-CO}-[Cha]-Ser(Bn)-aldehyde)", "Ki": "64 nM"}
{"compound": "O=C(N/N=C(\\CS(=O)(=O)c1ccccc1)[C@H](COCc1ccccc1)NC(=O)[C@H](CC1CCCCC1)NC(=O)N1CCOCC1)c1ccccc1", "Ki": "> 12 nM"}
{"compound": "N#C[C@H](CCc1ccccc1)NC(=O)[C@H](CC1CCCCC1)NC(=O)C1CCOCC1", "Ki": "> 12000 nM"}
{"compound": "CS(=O)(=O)C[C@H](N[C@@H](c1ccc([N+](=O)[O-])cc1)C(F)(F)F)C(=O)N[C@H](C#N)COCc1ccccc1", "Ki": "82 nM"}
{"compound": "O=C(SCC(=O)[C@H](COCc1ccccc1)NC(=O)[C@H](CC1CCCCC1)NC(=O)N1CCOCC1)c1ccccc1", "Ki": "> 10 nM"}
{"compound": "N#C[C@H](COCc1ccccc1)NC(=O)[C@H](CC1CCCCC1)NC(=O)C1CCOCC1", "Ki": "> 12000 nM"}
{"compound": "N#C[C@H](CCc1ccccc1)NC(=O)[C@H](CC1CCCCC1)N[C@@H](c1ccc(F)cc1)C(F)(F)F", "Ki": "> 12000 nM"}
{"compound": "N#CC1(NC(=O)[C@H](CC2CCCCC2)NC(=O)N2CCOCC2)CC1", "Ki": "> 12000 nM"}
